target: P. falciparum apicoplast DNA polymerase (Pf-apPOL) (Plasmodium falciparum, UniProt Q8ILY1); experiment: Fluorescence-based high-throughput DNA polymerase assay (molecular beacon), primary screen and dose-response; type: biochemical; details: DRC-2; 5'; concentration 10
Sequence (Q8ILY1 entry or part of it): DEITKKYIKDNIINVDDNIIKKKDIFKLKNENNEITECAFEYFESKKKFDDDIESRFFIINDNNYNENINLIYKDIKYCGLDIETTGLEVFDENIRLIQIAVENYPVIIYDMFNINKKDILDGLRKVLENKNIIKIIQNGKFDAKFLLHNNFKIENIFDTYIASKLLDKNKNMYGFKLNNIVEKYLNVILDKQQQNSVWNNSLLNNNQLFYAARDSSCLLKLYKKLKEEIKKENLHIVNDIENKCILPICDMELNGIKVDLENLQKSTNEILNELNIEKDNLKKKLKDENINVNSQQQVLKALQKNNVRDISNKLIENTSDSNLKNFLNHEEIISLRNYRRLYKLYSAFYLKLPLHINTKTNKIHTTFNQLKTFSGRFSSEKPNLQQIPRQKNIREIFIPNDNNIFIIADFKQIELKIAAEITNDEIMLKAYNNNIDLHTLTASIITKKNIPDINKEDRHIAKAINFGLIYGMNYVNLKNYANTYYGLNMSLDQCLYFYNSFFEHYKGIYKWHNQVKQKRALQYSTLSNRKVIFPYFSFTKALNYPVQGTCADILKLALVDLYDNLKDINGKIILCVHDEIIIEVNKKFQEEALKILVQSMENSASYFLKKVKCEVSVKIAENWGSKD
Assign MET to entries whose % inhibition Apo pol 5' meets or exceeds 40%; assign NOT MET to the rest.

| compound | group |
| --- | --- |
| CCN1C(=O)C(=Cc2cccc(OC)c2O)SC1=S | NOT MET |
| COc1ccc(C2CC(c3ccc(Cl)cc3Cl)Nc3nc(N)nn32)cc1OC (centres unmarked) | NOT MET |
| Cc1nc(/N=N/c2ccc(C(=O)[O-])cc2)c(COP(=O)([O-])[O-])c(C=O)c1O.[Na+].[Na+].[Na+] | MET |
| O=C(Cn1ccc2c(=O)[nH]ccc21)Nc1cccc(Cl)c1 [Molecule 23, O=C(Cn1ccc2c1cc[nH]c2=O)Nc1cccc(c1)Cl] | MET |
| O=C(CSc1nc2ccccc2s1)Nc1ncc([N+](=O)[O-])s1 | NOT MET |
| O=C1C(=Cc2ccccc2O)Oc2ccc(O)cc21 | NOT MET |
| CC1(C)CC(=O)C2=C(C1)OC1=C(C(=O)CC(C)(C)C1)C2c1ccc(O)cc1 | NOT MET |

---

biological target: P. falciparum apicoplast DNA polymerase (Pf-apPOL) (Plasmodium falciparum); assay: Fluorescence-based high-throughput DNA polymerase assay (molecular beacon), primary screen and dose-response; assay type: biochemical; conditions: DRC-1; concentration 40; 10'
recordedMetric: % inhibition Apo pol 10'

| compound | recordedMetric | result |
| --- | --- | --- |
| COc1ccc(C=C2Oc3c(ccc4c3CN(Cc3ccco3)CO4)C2=O)c(OC)c1 [KU0199404] | % inhibition Apo pol 10' | 58.5562% |
| COc1ccc(-c2occ(C(=O)O)c2C(=O)O)cc1 [KU0021536] | % inhibition Apo pol 10' | 86.5866% |
| Cc1cc(C)nc(Nc2nc(CC(=O)Nc3nc(-c4ccco4)cs3)cs2)n1 [Molecule 92] | % inhibition Apo pol 10' | 86.2847% |
| Nc1ncnc(NC2CCCCC2)c1[N+](=O)[O-] [KU0193018] | % inhibition Apo pol 10' | 53.9116% |
| COc1ccc(NC(=O)Cn2nc3c(cc2=O)CCC3)cc1Cl [Molecule 4, COc1ccc(cc1Cl)NC(=O)Cn1nc2CCCc2cc1=O] | % inhibition Apo pol 10' | 93% |

---

% inhibition apPOL 180' listing for selected compounds.
molecular target: P. falciparum apicoplast DNA polymerase (Pf-apPOL) (Plasmodium falciparum); test: Fluorescence-based high-throughput DNA polymerase assay (molecular beacon), primary screen and dose-response; format: biochemical; settings: DRC-1; 180'; conc 2.5
recordedMetric: % inhibition apPOL 180' (%)

| compound | targetUnderTest | recordedMetric | scaleUnit | readoutNumber |
| --- | --- | --- | --- | --- |
| N#CC(C#N)=C1SCN(c2cccc(Cl)c2)CS1 [Molecule 29, N#CC(=C1SCN(CS1)c1cccc(c1)Cl)C#N] | P. falciparum apicoplast DNA polymerase (Pf-apPOL) (Plasmodium falciparum) | % inhibition apPOL 180' | % | 2.521 |
| O=c1nc(/C=C/c2ccc(Br)cc2)oc2ccccc12 [KU0052629] | P. falciparum apicoplast DNA polymerase (Pf-apPOL) (Plasmodium falciparum) | % inhibition apPOL 180' | % | -7.96 |
| Cc1ccccc1NC(=O)Cn1ccc2c(=O)[nH]ccc21 [Molecule 50, O=C(Cn1ccc2c1cc[nH]c2=O)Nc1ccc(cc1)C] | P. falciparum apicoplast DNA polymerase (Pf-apPOL) (Plasmodium falciparum) | % inhibition apPOL 180' | % | -5.117 |
| C=CCOc1c(Br)cc(Br)cc1/C=C1\SC(=N)NC1=O [KU0051640] | P. falciparum apicoplast DNA polymerase (Pf-apPOL) (Plasmodium falciparum) | % inhibition apPOL 180' | % | -0.2194 |
| O=C1NN(c2ccc(Cl)c(Cl)c2)C(=O)/C1=C/c1ccc(-c2ccc3c(c2)C(=O)OC3)o1 [Molecule 90] | P. falciparum apicoplast DNA polymerase (Pf-apPOL) (Plasmodium falciparum) | % inhibition apPOL 180' | % | 13.8146 |
| C=CC1=C(C)c2cc3[nH]c(cc4nc(cc5[nH]c(cc1n2)c(C)c5CCC(=O)O)C(CCC(=O)O)=C4C)c(C)c3C=C [Molecule 91] | P. falciparum apicoplast DNA polymerase (Pf-apPOL) (Plasmodium falciparum) | % inhibition apPOL 180' | % | 35.65 |
| CCOc1nc2cccc(C(=O)OC(C)OC(=O)OC3CCCCC3)c2n1Cc1ccc(-c2ccccc2-c2nnn[nH]2)cc1 (stereo not drawn) [Molecule 94] | P. falciparum apicoplast DNA polymerase (Pf-apPOL) (Plasmodium falciparum) | % inhibition apPOL 180' | % | 1.0757 |
| COc1ccccc1C1CC(=O)Oc2cc3c(cc21)OCO3 (stereo not drawn) [KU0104502] | P. falciparum apicoplast DNA polymerase (Pf-apPOL) (Plasmodium falciparum) | % inhibition apPOL 180' | % | -4.384 |
| Cc1cccc(NC(=O)Cn2ccc3c(=O)[nH]ccc32)c1C [Molecule 11, O=C(Cn1ccc2c1cc[nH]c2=O)Nc1cccc(c1C)C] | P. falciparum apicoplast DNA polymerase (Pf-apPOL) (Plasmodium falciparum) | % inhibition apPOL 180' | % | -2.306 |
